Record form. Attribute: EC50. Fill in for each entry.
- System: Zymoseptoria tritici field and genetically modified strains
- protocol: Liquid culture assay for fungicide sensitivity determination
- Assay type: cell-based
- measurementParameters: Zymoseptoria tritici, read-out: EC50 (nM) Mean, strain pTet::SDHC3_I78A_T5; liquid culture sensitivity
Number in nM, nothing else.

Ask | For the record CC1=C(C(=O)Nc2ccccc2)SCCO1 , what value of EC50 is listed for Zymoseptoria tritici field and genetically modified strains?
Reply | 12700

Ask | For the record C[C@@H](Cc1ccc(Cl)cc1Cl)NC(=O)c1cn(C)nc1C(F)F , what value of EC50 is listed for Zymoseptoria tritici field and genetically modified strains?
Reply | 332

Ask | For the record CON(C(=O)c1cn(C)nc1C(F)F)[C@@H](C)Cc1c(Cl)cc(Cl)cc1Cl , what value of EC50 is listed for Zymoseptoria tritici field and genetically modified strains?
Reply | 6

Ask | For the record O=C(NCCc1ncc(C(F)(F)F)cc1Cl)c1ccccc1C(F)(F)F , what value of EC50 is listed for Zymoseptoria tritici field and genetically modified strains?
Reply | 818

Ask | For the record Cn1cc(C(=O)NCCc2ccc(Cl)cc2Cl)c(C(F)F)n1 , what value of EC50 is listed for Zymoseptoria tritici field and genetically modified strains?
Reply | 7960

Ask | For the record O=C(Nc1ccccc1-c1ccc(Cl)cc1)c1cccnc1Cl , what value of EC50 is listed for Zymoseptoria tritici field and genetically modified strains?
Reply | 1680

----------
- measurementTarget: SQR (SDHC) of D024 SDHC3 KO mitochondria (Zymoseptoria tritici, UniProt F9X9V6+F9XH52+O42772)
- Sequence (F9XH52 44-187): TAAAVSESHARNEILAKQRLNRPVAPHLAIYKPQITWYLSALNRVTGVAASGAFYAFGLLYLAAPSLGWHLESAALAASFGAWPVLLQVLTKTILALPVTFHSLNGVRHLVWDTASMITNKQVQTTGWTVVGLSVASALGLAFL
- Sequence (O42772 19-297): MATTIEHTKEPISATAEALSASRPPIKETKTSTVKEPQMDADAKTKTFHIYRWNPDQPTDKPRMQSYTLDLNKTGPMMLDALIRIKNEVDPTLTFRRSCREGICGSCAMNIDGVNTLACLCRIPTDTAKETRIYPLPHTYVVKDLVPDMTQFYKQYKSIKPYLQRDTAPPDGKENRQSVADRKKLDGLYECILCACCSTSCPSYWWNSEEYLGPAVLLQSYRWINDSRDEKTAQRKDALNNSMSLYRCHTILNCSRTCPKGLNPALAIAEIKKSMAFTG
- Sequence (F9X9V6 1-193): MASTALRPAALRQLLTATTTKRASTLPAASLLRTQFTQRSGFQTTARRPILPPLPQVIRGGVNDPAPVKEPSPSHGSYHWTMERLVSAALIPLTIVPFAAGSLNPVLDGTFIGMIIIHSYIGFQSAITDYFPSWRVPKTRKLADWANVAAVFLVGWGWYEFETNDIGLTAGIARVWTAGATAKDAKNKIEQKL
- Sequence (F9WWR1 29-643 partner): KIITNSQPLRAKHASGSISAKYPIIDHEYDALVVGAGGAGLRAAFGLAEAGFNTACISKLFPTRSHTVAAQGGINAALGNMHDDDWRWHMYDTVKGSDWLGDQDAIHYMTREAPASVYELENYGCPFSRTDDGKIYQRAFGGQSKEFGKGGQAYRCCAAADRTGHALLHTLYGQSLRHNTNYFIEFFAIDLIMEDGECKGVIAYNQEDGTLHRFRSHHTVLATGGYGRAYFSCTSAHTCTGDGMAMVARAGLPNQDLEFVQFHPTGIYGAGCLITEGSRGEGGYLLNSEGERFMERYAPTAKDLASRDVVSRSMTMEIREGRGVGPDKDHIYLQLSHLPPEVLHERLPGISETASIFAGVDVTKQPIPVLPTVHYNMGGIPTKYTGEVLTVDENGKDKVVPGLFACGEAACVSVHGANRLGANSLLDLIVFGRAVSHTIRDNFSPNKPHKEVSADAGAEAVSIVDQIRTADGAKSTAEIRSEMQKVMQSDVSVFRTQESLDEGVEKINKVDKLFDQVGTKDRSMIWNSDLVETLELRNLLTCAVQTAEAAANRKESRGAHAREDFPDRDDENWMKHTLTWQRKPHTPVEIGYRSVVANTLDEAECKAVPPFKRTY
- protocol: Succinate-quinone (SQR) SDHI sensitivity assay on purified mitochondria, 06STD024 SDHC3 KO
- Type: biochemical
- measurementParameters: IC50 ratio compared to IPO323 values
valueType: RF (resistance factor), D024 SDHC3 KO (SDHC)

Ask | Form field: reported RF (resistance factor), D024 SDHC3 KO (SDHC) of CC(C)C1C2CCC1c1c(NC(=O)c3cn(C)nc3C(F)F)cccc12 (stereo not drawn)
Reply | 0.7

Ask | Form field: reported RF (resistance factor), D024 SDHC3 KO (SDHC) of O=C(NCCc1ncc(C(F)(F)F)cc1Cl)c1ccccc1C(F)(F)F
Reply | 0.8

Ask | Form field: reported RF (resistance factor), D024 SDHC3 KO (SDHC) of CON(C(=O)c1cn(C)nc1C(F)F)[C@@H](C)Cc1c(Cl)cc(Cl)cc1Cl
Reply | 1.1

Ask | Form field: reported RF (resistance factor), D024 SDHC3 KO (SDHC) of Cn1cc(C(=O)Nc2cccc3c2[C@@H]2CC[C@H]3C2=C(Cl)Cl)c(C(F)F)n1 (racemic)
Reply | 0.8

Ask | Form field: reported RF (resistance factor), D024 SDHC3 KO (SDHC) of Cn1cc(C(=O)Nc2ccc(F)cc2-c2ccc(Cl)c(Cl)c2)c(C(F)F)n1
Reply | 1.0

Ask | Form field: reported RF (resistance factor), D024 SDHC3 KO (SDHC) of Cn1cc(C(=O)Nc2ccccc2-c2cc(F)c(F)c(F)c2)c(C(F)F)n1
Reply | 0.8

Ask | Form field: reported RF (resistance factor), D024 SDHC3 KO (SDHC) of O=C(Nc1ccccc1-c1ccc(Cl)cc1)c1cccnc1Cl
Reply | 1.0

Ask | Form field: reported RF (resistance factor), D024 SDHC3 KO (SDHC) of CC1=C(C(=O)Nc2ccccc2)SCCO1
Reply | 0.8

Ask | Form field: reported RF (resistance factor), D024 SDHC3 KO (SDHC) of C[C@@H](Cc1ccc(Cl)cc1Cl)NC(=O)c1cn(C)nc1C(F)F
Reply | 0.7

Ask | Form field: reported RF (resistance factor), D024 SDHC3 KO (SDHC) of CC(C)CC(C)c1sccc1NC(=O)c1cn(C)nc1C(F)(F)F (stereo not drawn)
Reply | 1.1

Ask | Form field: reported RF (resistance factor), D024 SDHC3 KO (SDHC) of Cn1cc(C(=O)NCCc2ccc(Cl)cc2Cl)c(C(F)F)n1
Reply | 0.7

Ask | Form field: reported RF (resistance factor), D024 SDHC3 KO (SDHC) of CON(C(=O)c1cn(C)nc1C(F)F)[C@@H](C)Cc1ccc(Cl)cc1Cl
Reply | 1.2
